Target: UniProt P17948
Experiment: Test for activity against Flt-1 VEGF-receptor tyrosine kinase
READOUT_KIND: IC50 (nM)

(a) Fc1cc(Cl)ccc1Nc1nnc(Cc2ccncc2)c2ccccc12 [Example 44D]
(b) CCOc1ccc(Nc2nnc(Cc3ccncc3)c3ccccc23)cc1 [Example 44E]
[Q] Compare a and b and name the one whose reported IC50 is smaller. Write the label of whichever entry you select.
[A] a

(1) Clc1ccc(Oc2nnc(Cc3ccncc3)c3ccccc23)cc1 [Example 72B]
(2) FC(F)C(F)(F)Oc1cccc(Nc2nnc(Cc3ccncc3)c3ccccc23)c1 [Example 67S]
(3) FC(F)(F)Oc1cccc(Nc2nnc(Cc3ccncc3)c3ccccc23)c1 [Example 67H]
[Q] Descending sort on IC50 required. List the labels, following the order given in the request.
[A] 2, 3, 1

----------
Molecular target: Flt-1 VEGF-receptor tyrosine kinase (Homo sapiens, UniProt P17948)
Sequence (P17948 827-1158 limits assumed): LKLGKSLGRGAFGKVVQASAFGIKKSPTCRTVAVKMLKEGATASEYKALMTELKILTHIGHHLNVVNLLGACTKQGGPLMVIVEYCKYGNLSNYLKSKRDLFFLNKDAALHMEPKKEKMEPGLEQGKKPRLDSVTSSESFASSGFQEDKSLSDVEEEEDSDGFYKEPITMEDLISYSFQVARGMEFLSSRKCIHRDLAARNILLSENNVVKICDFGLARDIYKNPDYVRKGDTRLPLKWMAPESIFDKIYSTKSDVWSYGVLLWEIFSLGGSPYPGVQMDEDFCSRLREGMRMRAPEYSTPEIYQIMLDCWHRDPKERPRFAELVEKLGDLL
Test: Test for activity against Flt-1 VEGF-receptor tyrosine kinase
Details: kinase domain of Flt-1, poly(Glu,Tyr) 4:1, 8 μM [33P]-ATP, 15 minutes at room temperature
pIC50: −log10 of the molar value.
READOUT_KIND: pIC50

>  <COMPOUND>
CC(c1ccncc1)c1nnc(Nc2ccc(Cl)cc2)c2ccccc12 (racemic)

>  <TARGET>
Flt-1 VEGF-receptor tyrosine kinase (Homo sapiens, UniProt P17948)

>  <pIC50>
6.04

$$$$

(I) Cc1cc(Cc2nnc(Nc3ccc(Cl)cc3)c3ccccc23)ccn1 [Example 44F]
(II) CC1(c2ccc(Nc3nnc(Cc4ccncc4)c4ccccc34)cc2)OCCO1 [Example 70B]
[Q] Please tell me which of the two, I or II , has the higher reported pIC50 value. The response must carry the label of the picked entry.
[A] I

----------
Below, each entry is listed alongside its reported melting point.

[Q] Please look at this molecule and report its melting point: Oc1ccc(Nc2nnc(Cc3ccncc3)c3ccccc23)cc1 [Example 19]
[A] 239 to 241 °C

[Q] Complete the entry with melting point for Cc1ccc(Nc2nnc(Cc3ccncc3)c3ccccc23)cc1O (hydrate or solvate) [Example 67B]
[A] 192 to 195 °C

[Q] Please indicate melting point recorded for COc1cccc(Nc2nnc(Cc3ccncc3)c3ccccc23)c1
[A] 118 to 120 °C

[Q] Assign melting point to the following record: Cc1ccc(Nc2nnc(Cc3ccncc3)c3ccccc23)cc1C [Example 45]
[A] 180 to 181 °C

[Q] Check the records and state melting point for Cc1ccc(Nc2nnc(Cc3ccncc3)c3ccccc23)cc1 [Example 37]
[A] 152 to 153 °C

[Q] Read the entry Cl.Cl.c1ccc(Nc2nnc(Cc3ccncc3)c3ccccc23)cc1 and write its reported melting point.
[A] 217 to 220 °C

[Q] Supply measured melting point of Cc1cccc(Nc2nnc(Cc3ccncc3)c3ccccc23)c1 [Example 43] in your reply.
[A] 141 to 143 °C

[Q] Please look at this molecule and report its melting point: c1ccc(COc2cccc(Nc3nnc(Cc4ccncc4)c4ccccc34)c2)cc1 [Example 9]
[A] 142 to 143 °C

[Q] Answer with the recorded melting point for the molecule listed here: CCOc1cccc(Nc2nnc(Cc3ccncc3)c3ccccc23)c1 [Example 67F]
[A] 193 to 195 °C

[Q] // fetch melting point given entry CCc1ccc(Nc2nnc(Cc3ccncc3)c3ccccc23)cc1 [Example 44A]
[A] 163 to 164 °C

----------
Listed below: melting point values for each entry.

Previously resolved entries follow.
>  <COMPOUND>
Clc1ccc(Nc2nnc(Cc3ccncc3)c3ncccc23)cc1 [Example 73]

>  <melting point>
220 to 222 °C

$$$$
>  <COMPOUND>
CS(=O)(=O)O.CS(=O)(=O)O.CS(=O)(=O)O.Nc1cccc(Nc2nnc(Cc3ccncc3)c3ccccc23)c1 [Example 20]

>  <melting point>
249 to 251 °C

$$$$
>  <COMPOUND>
COc1ccc(Nc2nnc(Cc3ccncc3)c3ccccc23)cc1 [Example 8]

>  <melting point>
223 to 224 °C

$$$$

Let's switch to this compound now.
[Q] Specify melting point for Clc1ccc(Nc2nnc(NCc3ccncc3)c3ccccc23)cc1 [Example 49] and stop.
[A] 233 to 236 °C
